Exercise: for every item that follows, state its recorded pIC50.
measured target: Amyloid-beta precursor protein (Homo sapiens, UniProt P05067)
Sequence (P05067 whole entry): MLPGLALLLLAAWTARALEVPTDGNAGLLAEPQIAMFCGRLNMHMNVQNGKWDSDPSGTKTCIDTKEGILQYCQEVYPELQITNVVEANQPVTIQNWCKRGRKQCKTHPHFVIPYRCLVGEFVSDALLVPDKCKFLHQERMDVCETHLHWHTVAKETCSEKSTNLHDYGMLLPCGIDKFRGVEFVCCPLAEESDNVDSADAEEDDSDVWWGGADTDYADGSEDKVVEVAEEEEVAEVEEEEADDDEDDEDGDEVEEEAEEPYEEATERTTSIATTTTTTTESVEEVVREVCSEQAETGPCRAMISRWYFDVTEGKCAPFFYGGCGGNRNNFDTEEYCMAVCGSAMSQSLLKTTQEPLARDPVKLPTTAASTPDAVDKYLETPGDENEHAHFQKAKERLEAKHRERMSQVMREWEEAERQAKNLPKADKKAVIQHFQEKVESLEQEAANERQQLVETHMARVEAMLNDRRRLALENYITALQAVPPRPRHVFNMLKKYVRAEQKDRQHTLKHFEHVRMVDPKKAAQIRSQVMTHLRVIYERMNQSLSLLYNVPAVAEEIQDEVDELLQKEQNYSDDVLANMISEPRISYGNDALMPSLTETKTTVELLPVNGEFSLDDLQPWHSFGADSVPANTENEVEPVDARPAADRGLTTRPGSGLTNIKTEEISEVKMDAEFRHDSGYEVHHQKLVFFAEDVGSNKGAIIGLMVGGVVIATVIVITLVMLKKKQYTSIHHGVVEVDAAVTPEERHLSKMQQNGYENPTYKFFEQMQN
protocol text: Inhibition of amyloid beta (1 to 42) (unknown origin) aggregation incubated at 37 degC for 16 hrs by thioflavin T fluorescence assay
Formally, pIC50 is defined as -log10 of the concentration c, with c in mol/L.

Lab book: pIC50 of C[C@@]1(O)c2ccc3c(c2C(=O)c2occ([C@@H](O)CCO)c21)CCC3=O noted as 4.14

Lab book: pIC50 of C[C@@]12c3ccc4c(c3C(=O)c3occ(c31)C(=O)C[C@H]2O)CCC4=O [DEMETHOXYVIRIDIN] noted as 4.87

Lab book: pIC50 of C[C@]12CCC(=O)c3coc(c31)C(=O)C1=C2[C@@H](O)C[C@]2(C)C(=O)CC[C@@H]12 noted as 5.92

Lab book: pIC50 of C[C@@]12c3ccc4c(c3C(=O)c3occ(c31)[C@@H](O)C[C@@H]2O)CCC4=O noted as 5.00

Lab book: pIC50 of C[C@]1(O)c2ccc3c(c2C(=O)c2occ(CCCO)c21)CCC3=O noted as 4.55

Lab book: pIC50 of C[C@@]12C(=O)CC[C@H]1C1=C(C[C@H]2O)[C@@]2(C)CC[C@H](O)c3coc(c32)C1=O noted as 4.36

Lab book: pIC50 of O=C(O[C@@H]1Cc2c(O)cc(O)cc2O[C@@H]1c1cc(O)c(O)c(O)c1)c1cc(O)c(O)c(O)c1 [EPIGALOCATECHIN GALLATE] noted as 6.30

Lab book: pIC50 of C[C@]1(O)c2ccc3c(c2C(=O)c2occ(CCO)c21)CCC3=O noted as 4.46

Lab book: pIC50 of C[C@]1(O)c2ccc3c(c2C(=O)c2occ([C@@H](O)CCO)c21)CCC3=O noted as 4.02
